assay: Inhibition of Herpes simplex virus type 1 ribonucleotide reductase; assay type: functional, Human alphaherpesvirus 1
Where a SMILES comes first, the peptide text is derived from it. [ ]: non-standard residue; d: D form. The star is where a group is joined. Butanoyl(2-Et) = CCC(CC)C(=O)*; Tle = CC(C)(C)[C@H](N)C(=O)O; Pyrrolidide = C1CCN(*)C1; X1 = CC(C)C(C(=O)*)C(C)C
Property name: pIC50
On this scale, pIC50 is minus log10 of a concentration expressed in M (mol/L).

Past entries and their recorded results:
[
  {
    "Compound": "CCC(CC)C(=O)N[C@H](C(=O)N[C@@H](CC(=O)N1CCCC1)C(=O)N[C@@H](CC(=O)O)C(=O)N[C@H](CO)CC(C)(C)C)C(C)(C)C",
    "Value": 5.72
  },
  {
    "Compound": "CCC(CC)C(=O)N[C@H](C(=O)N[C@@H](CC(N)=O)C(=O)N[C@@H](CC(=O)O)C(=O)N[C@@H](CC(C)C)C(=O)O)C(C)(C)C ({Butanoyl(2-Et)}-[Tle]NDL-OH)",
    "Value": 4.00
  },
  {
    "Compound": "CC[C@H](C)[C@H](NC(=O)C(C(C)C)C(C)C)C(=O)N[C@@H](CC(=O)N1CCCC1)C(=O)N[C@@H](CC(=O)O)C(=O)N[C@@H](CC(C)C)C(=O)O (X1-ID(Pyrrolidide)DL-OH)",
    "Value": 5.70
  }
]

As a next step, examine the compound that follows.
The value of pIC50 measured for the compound CCC(CC)C(=O)N[C@H](C(=O)N[C@@H](CCC1CCCC1)C(=O)N[C@@H](CC(=O)O)C(=O)N[C@@H](CC(C)C)C(=O)O)C(C)(C)C turned out to be 4.19

----------
assay: Inhibition of Herpes simplex virus type 1 ribonucleotide reductase; format: functional, Human alphaherpesvirus 1
Where a SMILES comes first, the peptide text is derived from it. [ ]: non-standard residue; d: D form. The star is where a group is joined. Butanoyl(2-Et) = CCC(CC)C(=O)*; Tle = CC(C)(C)[C@H](N)C(=O)O; Leu(ol) = CC(C)C[C@H](N)CO; Pyrrolidide = C1CCN(*)C1
Entries and their pIC50 values follow.
On this scale, pIC50 is minus log10 of a concentration expressed in M (mol/L).

Past entries and their recorded results:
[
  {
    "Compound": "CCC(CC)C(=O)N[C@@H](CC(=O)O)C(=O)N[C@@H](CC(=O)N1CCCC1)C(=O)N[C@@H](CC(=O)O)C(=O)N[C@@H](CC(C)C)C(=O)O ({Butanoyl(2-Et)}-DD(Pyrrolidide)DL-OH)",
    "Value": 5.21
  },
  {
    "Compound": "CCC(CC)C(=O)N[C@H](C(=O)N[C@@H](CC(=O)N1CCCC1)C(=O)N[C@@H](CC(=O)O)C(=O)N[C@@H](CC(C)C)C(=O)O)[C@@H](C)O ({Butanoyl(2-Et)}-TD(Pyrrolidide)DL-OH)",
    "Value": 5.36
  }
]

The value of pIC50 measured for the compound CCC(CC)C(=O)N[C@H](C(=O)N[C@@H](CC(=O)N1CCCC1)C(=O)N[C@@H](CC(=O)O)C(=O)N[C@H](CO)CC(C)C)C(C)(C)C ({Butanoyl(2-Et)}-[Tle]D(Pyrrolidide)D[Leu(ol)]) turned out to be 5.25
